B1: FAM107A (parent)
chain: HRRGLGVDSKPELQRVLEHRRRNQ

Variants of: B1
ASSAY_INFO: protein stability index of a GFP-peptide fusion (GPS, HEK-293T) (PSI 1-6); higher = more stable;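 note: lentivirally expressed fusions sorted by FACS into six bins by GFP to DsRed ratio, PSI derived from sequencing read proportions per bin multiplied by bin number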
CONDITION_NOTES: c terminus: a fixed tail appended
Measured protein stability index, listed per entry for reference.

Data request: Provide protein stability index value for the following variant: HRRGLGVDSKPELQRVHEHRRRNQ [L17H]
Data returned: 4.34

Data request: Give a short answer stating reported protein stability index for HRRGLGVDSKPELQRYLEHRRRNQ [V16Y] .
Data returned: 4.46
